Test system: p53 signaling (p53RE-bla HCT-116 cells)
Measurement protocol: cells
Settings: Homo sapiens, HCT-116, read-out: p53 activation EC50, primary screening
Reported log10 of EC50 by item:
Parameter: log10 of EC50 (log10 of the value in µM)

Compound | Target entity | log10 of EC50
O=C1OC(O)C(Cl)=C1Cl (stereo not shown) [Mucochloric acid] | p53 signaling (p53RE-bla HCT-116 cells) | 1.69
CCCCOCCOP(=O)(OCCOCCCC)OCCOCCCC [Tris(2-butoxyethyl) phosphate] | p53 signaling (p53RE-bla HCT-116 cells) | 1.55
CCSC(=O)N1CCCCCC1 [Molinate] | p53 signaling (p53RE-bla HCT-116 cells) | 0.27
COC(=O)C1=C(C)NC(COC(N)=O)=C(C(=O)OC(C)C)C1c1cccc(Cl)c1Cl (stereo not shown) [Lemildipine] | p53 signaling (p53RE-bla HCT-116 cells) | 1.32
COc1c2ccoc2cc2oc(=O)ccc12 [5-Methoxypsoralen] | p53 signaling (p53RE-bla HCT-116 cells) | 1.32
COP(=S)(OC)Oc1ccc([N+](=O)[O-])c(C)c1 [Fenitrothion] | p53 signaling (p53RE-bla HCT-116 cells) | 0.41
CC1CCC(C(C)C)C(OC(=O)c2ccccc2N)C1 (stereo not shown) [Menthyl anthranilate] | p53 signaling (p53RE-bla HCT-116 cells) | 1.54
CCOc1ccc2c(c1)C(C)=CC(C)(C)N2 [Ethoxyquin] | p53 signaling (p53RE-bla HCT-116 cells) | 1.59
CC(O)CN(CC(C)O)CC(C)O (stereo not shown) [Triisopropanolamine] | p53 signaling (p53RE-bla HCT-116 cells) | 1.57
c1cc2ccc3cccc4ccc(c1)c2c34 [Pyrene] | p53 signaling (p53RE-bla HCT-116 cells) | 1.34

----------
Test system: p53 signaling (p53RE-bla HCT-116 cells)
Measurement protocol: cells
Settings: Homo sapiens, HCT-116

Sample smiles | EC50
CCN(CC)C(=O)SCc1ccc(Cl)cc1 | 5.52 µM
CCOP(=S)(OCC)OP(=S)(OCC)OCC | 14.3 µM
CCCCSP(=O)(SCCCC)SCCCC | 2.16 µM

----------
Reported pEC50 by item:
Tested on: p53 signaling (p53RE-bla HCT-116 cells)
Measurement protocol: cells
Settings: Homo sapiens, HCT-116
pEC50: −log10 of the molar value.
Parameter: pEC50

Molecule | Parameter | Observed measurement
Cc1cc(=O)oc2cc(O)ccc12 | pEC50 | 4.60
CCOP(=O)(OCC)Oc1cc(C)nc(C(C)C)n1 | pEC50 | 5.18
CCOP(=S)(Oc1cnc(C(C)(C)C)nc1)OC(C)C (stereo not drawn) | pEC50 | 5.91
COP(=S)(OC)Oc1ccc([N+](=O)[O-])c(C)c1 | pEC50 | 5.00
CCOP(=O)(OCC)OC(=CCl)c1ccc(Cl)cc1Cl | pEC50 | 5.20
COP(=S)(OC)SCn1nnc2ccccc2c1=O | pEC50 | 4.94
CCOP(=S)(OCC)Oc1cnc2ccccc2n1 | pEC50 | 5.02
COP(=O)(OC)O/C(C)=C/C(=O)N(C)C | pEC50 | 4.94
CCc1c2c(nc3ccc(OC(=O)N4CCC(N5CCCCC5)CC4)cc13)-c1cc3c(c(=O)n1C2)COC(=O)[C@]3(O)CC [Irinotecan, reference compound] | pEC50 | 6.64

----------
System: p53 signaling (p53RE-bla HCT-116 cells)
Measurement protocol: cells
Type: cell-based
Settings: read-out: EC50
pEC50: −log10 of the molar value.
Parameter: pEC50

Compound | Observed measurement
COP(=S)(NC(C)C)Oc1ccc(C)cc1[N+](=O)[O-] (centres unmarked) [Amiprofos-methyl] | 5.35
Cc1cc(=O)oc2cc(O)ccc12.O [4-Methylumbelliferone hydrate] | 4.60

----------
Reported p53 activation efficacy by item:
System: p53 signaling (p53RE-bla HCT-116 cells)
Parameter: p53 activation efficacy

Sample smiles | Target entity | Parameter | Observed measurement
CCOP(=S)(OCC)SCSP(=S)(OCC)OCC | p53 signaling (p53RE-bla HCT-116 cells) | p53 activation efficacy | 48.0253
COP(=S)(OC)Oc1cc(Cl)c(Br)cc1Cl | p53 signaling (p53RE-bla HCT-116 cells) | p53 activation efficacy | 62.741
Nc1nc(Cl)nc2c1ncn2[C@H]1C[C@H](O)[C@@H](CO)O1 | p53 signaling (p53RE-bla HCT-116 cells) | p53 activation efficacy | 33.0267

----------
Tested on: p53 signaling (p53RE-bla HCT-116 cells)
Measurement protocol: cells
Type: cell-based
Settings: read-out: p53 activation EC50
pEC50: −log10 of the molar value.

Compound | pEC50
CC(C)=CCC1=C(O)C(=O)c2ccccc2C1=O [Lapachol] | 5.47
O=C(O)Cc1cc(I)c(Oc2ccc(O)c(I)c2)c(I)c1 [Tiratricol] | 4.97
Nc1nc(Cl)nc2c1ncn2[C@H]1C[C@H](O)[C@@H](CO)O1 [Cladribine] | 6.18
Nc1ccc(-c2ccc(N)c(Cl)c2)cc1Cl [3,3'-Dichlorobenzidine] | 4.79
COC(=O)N(OC)c1ccccc1COc1ccn(-c2ccc(Cl)cc2)n1 [Pyraclostrobin] | 5.58
O=C(O)CCCc1ccc(N(CCCl)CCCl)cc1 [Chlorambucil] | 4.43

----------
Reported half-life by item:
Measurement protocol: in vitro
Settings: male, Sprague Dawley, rat, microsomes, pH 7.4

Molecule | Result units | Relation operator | half-life
CCOP(=S)(OCC)Oc1nc(Cl)c(Cl)cc1Cl [Chlorpyrifos] | min | = | 1.11
Cc1nc(N(C)C)nc(OC(=O)N(C)C)c1C [Pirimicarb] | min | = | 11.7
CCOP(=S)(OCC)SCCSCC [Disulfoton] | min | > | 120
CCOP(=S)(OCC)SCSC(C)(C)C [Terbufos] | min | = | 1.12
CCOP(=S)(OCC)Oc1cc(-c2ccccc2)on1 [Isoxathion] | min | = | 2.77
CCSC(=O)N1CCCCCC1 [Molinate] | min | = | 12
CCOP(=S)(OCC)Oc1cnc2ccccc2n1 [Quinalphos] | min | = | 2.49
CCNP(=S)(OC)O/C(C)=C/C(=O)OC(C)C (centres unmarked) [Propetamphos] | min | > | 120
Cc1ccccc1OP(=O)(Oc1ccccc1C)Oc1ccccc1C [Tri-o-cresyl phosphate] | min | = | 1.17
CCOC(=O)c1cn2nc(OP(=S)(OCC)OCC)cc2nc1C [Pyrazophos] | min | = | 2.29
CCOP(=S)(NC(C)C)Oc1ccccc1C(=O)OC(C)C (centres unmarked) [Isofenphos] | min | = | 1.25
CCOP(=S)(OCC)Oc1ccc2c(C)c(Cl)c(=O)oc2c1 [Coumaphos] | min | = | 0.88
CCOP(=S)(Oc1cnc(C(C)(C)C)nc1)OC(C)C (centres unmarked) [Tebupirimfos] | min | = | 3.59
OCCN(CCO)c1nc(N2CCCCC2)c2nc(N(CCO)CCO)nc(N3CCCCC3)c2n1 [Dipyridamole, reference compound] | min | = | 7.32
Cc1cc(=O)n(-c2ccccc2)n1C [antipyrine, reference compound] | min | > | 120
CCOP(=O)(SC(C)CC)N1CCSC1=O (centres unmarked) [Fosthiazate] | min | = | 15.2
CCN(CC)C(=O)SCc1ccc(Cl)cc1 [Thiobencarb] | min | = | 1.48
CCOP(=O)(OCC)OC(=CCl)c1ccc(Cl)cc1Cl [Chlorfenvinphos] | min | = | 28.6
O=C1CC2(CCCC2)CC(=O)N1CCCCN1CCN(c2ncccn2)CC1 [buspirone, reference compound] | min | = | 7.2
COP(=S)(OC)Oc1ccc(S(=O)(=O)N(C)C)cc1 [Famphur] | min | = | 10.8
COc1c2ccoc2cc2oc(=O)ccc12 [5-Methoxypsoralen] | min | = | 21.1
Cc1cc(=O)oc2cc(O)ccc12 [4-Methylumbelliferone] | min | = | 19.1
CCOP(=S)(OCC)SCSCC [Phorate] | min | = | 104

----------
Test system: p53 signaling (p53RE-bla HCT-116 cells)
Measurement protocol: cells
Type: cell-based
Settings: Homo sapiens, HCT-116, read-out: p53 activation EC50, cherry pick confirmation
Structures can show the parent of a compound that is named as a salt.
Parameter: log10 of EC50 (log10 of the value in µM)

Molecule | Parameter | Observed measurement
O=C1c2ccccc2C(=O)C1(O)O [Ninhydrin] | log10 of EC50 | 1.35
O=C(Nc1cccc(Cl)c1)OCC#CCCl | log10 of EC50 | 1.51
Oc1ccc(Cl)cc1Sc1cc(Cl)ccc1O | log10 of EC50 | 1.26
CC1=C(C(=O)Nc2ccccc2)S(=O)(=O)CCO1 | log10 of EC50 | 1.56
C/C=C(/C(=C/C)c1ccc(O)cc1)c1ccc(O)cc1 | log10 of EC50 | 0.89
CCN(CC)CCCC(C)Nc1c2ccc(Cl)cc2nc2ccc(OC)cc12 (centres unmarked) [Quinacrine dihydrochloride dihydrate] | log10 of EC50 | 0.92
CCCSc1ccc2nc(NC(=O)OC)[nH]c2c1 | log10 of EC50 | -0.95
CN(C)c1ccc2nc3ccc(=[N+](C)C)cc-3sc2c1 | log10 of EC50 | 1.18
